Biological target: T1, Activin B (UniProt P09529 293-407)
T1 sequence (looked up): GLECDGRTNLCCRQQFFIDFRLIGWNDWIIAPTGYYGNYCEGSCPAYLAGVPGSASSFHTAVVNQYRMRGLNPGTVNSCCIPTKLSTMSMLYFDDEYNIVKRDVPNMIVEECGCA
Test: SPR (Biacore 8K), Fc protein captured on anti-human IgG, ligand injected
reportedProperty: pKd
Would you please state pKd, meaning minus log10 of the concentration in mol/L, as a bare number?

Look over these answered cases.
ActRIIA-B7 (SEQ ID NO: 100) chimera-Fc protein (Fc fusion, Tested as chimera-Fc protein; not shown: linker (if any) and Fc domain) GAILGRSETQECLFFNANWEKDRTNQTGVEPCYGDKDKRRHCFATWKNISGSIEIVKQGCWLDDINCYDRTDCVEKKDSPEVYFCCCEGNMCNERFTHLPEMEVTQPTS
11.05
ActRIIA-B1B7 (SEQ ID NO: 101) chimera-Fc protein (Fc fusion, Tested as chimera-Fc protein; also called ActRIIA-B1β7; not shown: linker (if any) and Fc domain) GAILGRSETQECIYYNANWEKDRTNQTGVEPCYGDKDKRRHCFATWKNISGSIEIVKQGCWLDDINCYDRTDCVEKKDSPEVYFCCCEGNMCNERFTHLPEMEVTQPTS
10.60

Consider now this further binder.
(Q) // returns reported pKd for input ActRIIB-A6 (SEQ ID NO: 124) chimera-Fc protein (Fc fusion, Tested as chimera-Fc protein; not shown: linker (if any) and Fc domain) GRGEAETRECIYYNANWELERTNQSGLERCEGEQDKRLHCYASWRNSSGTIELVKKGCWLDDFNCYDRQECVATKDSPEVYFCCCEGNFCNERFTHLPEAGGPEVTYEPPPTAPT
(A) 12.00
